# Test system: IGROV-1
# assay.notes: NCI tumour cell line growth inhibition, 48 h
Active and inactive are the calls of the source. Rule as the data show it: active = GI50 up to about 1.1 µM and inactive = higher. Starred links: 1 amine or outer side, 2 acyl side, 3 side chain; linkers in the order of their positions; H or OH if unused. Non-standard residues stand in square brackets, D forms with d. Residues, ends and D or L forms follow the SMILES beside them. *: point of attachment. X47 = CCC(=O)CC1CC(C)CC(C(=O)[*:2])N1[*:1]; X46 = CCCCCCCCC(C)C(=O)*; Aib = CC(C)(N)C(=O)O; X48 = CC(CN(C)CCO)N*
measurement.name: GI50

Which measured GI50 value corresponds to C/C=C(/C)C(=O)OC1CC(C)[C@H]2CC(=O)C(C)=C2CC1C(C)(C)OC(C)=O (stereo partly specified) ?
53.8 µM (inactive)

# input compound: Sc1ccccc1S ; wanted: its GI50
> 100 µM (inactive)

# query: GI50 of entry CCCCCCCCC(C)C(=O)N1CCCC1C(=O)N1C(CC(=O)CC)CC(C)CC1C(=O)NC(C)C(=O)NC(C)(C)C(=O)NC(C)(C)C(=O)NC(C(=O)NC(C)C(=O)NC(C)(C)C(=O)NC(C)(C)C(=O)NC(C)CN(C)CCO)C(C)CC (stereo unspecified) (X46-P[X47]A[Aib][Aib]IA[Aib][Aib]-X48; configuration not given here)
0.221 µM (active)

Name the recorded GI50 for CCOC(=O)CSC(=O)NCCCl .
> 100 µM (inactive)

Sample Oc1c(N2CCOCC2)cc(-c2cc(N3CCOCC3)c(O)c3ccccc23)c2ccccc12 — what was its GI50?
2.4 µM (inactive)

For CC1(C)CC(=O)C(=CNc2nc(-c3ccccc3)cs2)C(=O)C1 , what is its reported GI50?
26.6 µM (inactive)

----------
# Test system: SW-620
# assay.notes: NCI tumour cell line growth inhibition, 48 h
Calls of active or inactive are those of the source. Rule as the data show it: active = GI50 up to about 1.1 µM and inactive = higher.
Hi! Could you answer with just one of these? true = active, false = inactive

What was the test verdict on CCOC(=O)c1csc(NC(=O)C(C)N2CCCCC2)n1 (stereo unspecified) ?
false

Fill in: this test's call for COc1ccc2c(c1)Cc1c(NCCN(C)C)ccc(C(=O)NCCCN(C)CCCNC(=O)c3ccc(NCCN(C)C)c4c3Nc3ccc(OC)cc3C4)c1N2 is ___
true

What is the recorded call for this compound in the test? Cc1ccc(S(=O)(=O)CNC(=S)CCCC(=S)NCS(=O)(=O)c2ccc(C)cc2)cc1
false

For Cc1c(CCO)c(O)n2c(nc3ccccc32)c1C#N , which call appears in the assay record?
false

What is the recorded call for this compound in the test? Cc1ccc(-c2cc(-c3ccc(Cl)cc3)nc(/N=C3\C(=O)N(CN4CCOCC4)c4ccccc43)n2)cc1
false

Dear colleague, could you share the recorded outcome for CON(C)C(=O)C(Cc1ccccc1)NC(=O)OC(C)(C)C (stereo unspecified) when you have a moment?
false

For C=CCN1C(=O)CC1N(CC=C)S(=O)(=O)c1ccc(C)cc1 (stereo unspecified) , what call appears in the results of this test?
false

Hi team, can someone confirm the assay call for C/C=C(/C)C(=O)OC1CC(C)[C@H]2CC(=O)C(C)=C2CC1C(C)(C)OC(C)=O (stereo partly specified) ?
false

Tell me the assay call for O=C(CCOS(=O)(=O)CF)N1CCN(C(=O)CCOS(=O)(=O)CF)CC1 please.
false

Test call, this compound: CC1CNC(c2cccc(-c3nc(-c4cccc(C5=NC(C)CN5)c4)nc(N(C)C)n3)c2)=N1 (stereo unspecified)
true

Look up the recorded call for OC1(C(O)(c2ccc(-c3ccccc3)cc2)c2ccc(-c3ccccc3)cc2)CCCCC1 in this test.
false

Look up the recorded call for C/C=C/C[C@@H](C)C(=O)C1C(=O)N[C@@H](C(C)C)C(=O)N(C)CC(=O)N(C)[C@@H](CC(C)C)C(=O)N[C@@H](C(C)C)C(=O)N(C)[C@@H](CC(C)C)C(=O)N[C@@H](C)C(=O)N[C@@H](C)C(=O)N(C)[C@@H](CC(C)C)C(=O)N(C)[C@@H](CC(C)C)C(=O)N(C)[C@@H](C(C)C)C(=O)N1C (stereo partly specified) in this test.
false

Please indicate how the test categorized CCOC(=O)C(NC(C)=O)(Nc1ccc(S(N)(=O)=O)cc1)C(F)(F)F (stereo unspecified) .
false

Recorded test outcome, item CC1c2cc(c3c(c2O)CN([C@@H](C)C2CCCCC2)CO3)C(C)c2cc(c3c(c2O)CN([C@@H](C)C2CCCCC2)CO3)C(C)c2cc(c3c(c2O)CN([C@@H](C)C2CCCCC2)CO3)C(C)c2cc1c1c(c2O)CN([C@@H](C)C2CCCCC2)CO1 (stereo partly specified)
true

# outcome recorded in this test, key = O=C1C2C3CC(C4C5C=CC(C5)C34)C2C2C3CC(C12)C1C2C=CC(C2)C31 (stereo unspecified)
false

Dear colleague, could you share the recorded outcome for COc1cc(C2C3=C(N=C4SC(C(C)=O)=C(C)N42)c2ccccc2CC3)cc(OC)c1OC (stereo unspecified) when you have a moment?
false
